Ref: the supplement of paper PMC6607015

- System: HeLa MZ
- RUN_DESCRIPTION: whole-cell filipin (free cholesterol) integrated intensity, Z-score; higher = more cholesterol staining
- SETTINGS: compound concentration in added solution (µM; 5 µl added to 20 µl cells): 10; 18 h
Where a name gives a salt, the structure may show the parent alone.
Values of whole-cell filipin (z-score) greater than or equal to 0.2 map to satisfied; values below map to not satisfied.

[[record]]
molecule = "CC(=O)Nc1nnc(S(N)(=O)=O)s1 [Acetazolamide]"
system = "HeLa MZ"
group_label = "not satisfied"

[[record]]
molecule = "CN(C)CCOC1=Cc2ccccc2Sc2ccc(Cl)cc21 [Zotepine]"
system = "HeLa MZ"
group_label = "not satisfied"

[[record]]
molecule = "NNC(=O)c1ccncc1"
system = "HeLa MZ"
group_label = "not satisfied"

[[record]]
molecule = "Cc1ccc2c(c1)c1c3n2CCNC3CCC1 (configuration not stated) [Pirlindole mesylate]"
system = "HeLa MZ"
group_label = "satisfied"

[[record]]
molecule = "CCC1(C)CC(=O)NC1=O (configuration not stated) [Ethosuximide]"
system = "HeLa MZ"
group_label = "not satisfied"

[[record]]
molecule = "CCN(CC)C(=O)c1ccc(O)c(OC)c1"
system = "HeLa MZ"
group_label = "satisfied"

[[record]]
molecule = "Nc1ccc(S(N)(=O)=O)cc1 [Sulfanilamide]"
system = "HeLa MZ"
group_label = "satisfied"

[[record]]
molecule = "CN(C)CCC=C1c2ccccc2C=Cc2ccccc21 [Cyclobenzaprine hydrochloride]"
system = "HeLa MZ"
group_label = "satisfied"

[[record]]
molecule = "CCOC(=O)C1=C(C)NC(C)=C(C(=O)OCC)C1c1ccccc1/C=C/C(=O)OC(C)(C)C"
system = "HeLa MZ"
group_label = "satisfied"

[[record]]
molecule = "COc1cc(C(=O)NCc2ccc(OCCN(C)C)cc2)cc(OC)c1OC [Trimethobenzamide hydrochloride]"
system = "HeLa MZ"
group_label = "not satisfied"

[[record]]
molecule = "CCN(CC)CCN[C@@H](C(=O)OCCC(C)C)c1ccccc1 [Camylofine chlorhydrate]"
system = "HeLa MZ"
group_label = "not satisfied"

[[record]]
molecule = "NC(CO)C(=O)NNCc1ccc(O)c(O)c1O (configuration not stated) [Benserazide hydrochloride]"
system = "HeLa MZ"
group_label = "not satisfied"


* * *

Measured filipin (z-score) by item
- System: HeLa MZ
- RUN_DESCRIPTION: filipin (cholesterol) integrated intensity within LBPA endosomes, Z-score; higher = more cholesterol in LBPA endosomes
- SETTINGS: compound concentration in added solution (µM; 5 µl added to 20 µl cells): 10; 18 h
Counter-ions that a name gives are not always drawn.
ATTRIBUTE_MEASURED: filipin (z-score)

[[record]]
compound = "CCN(CC)CCNC(=O)c1ccc(N)cc1 [Procainamide hydrochloride]"
result = -0.159

[[record]]
compound = "CN(C)[C@@H]1C(O)=C(C(N)=O)C(=O)[C@@]2(O)C(O)=C3C(=O)c4c(O)cccc4[C@@](C)(O)[C@H]3C[C@@H]12 [Tetracycline hydrochloride]"
result = -0.698

[[record]]
compound = "COc1ccccc1OCC(O)COC(N)=O (stereo not given)"
result = -0.501

[[record]]
compound = "COc1cc(OC)c(C(=O)CCCN2CCCC2)c(OC)c1 [Buflomedil hydrochloride]"
result = -0.263

[[record]]
compound = "CC(C)(C(=O)c1cccnc1)c1cccnc1"
result = -0.375

